Assay: Binding affinity to NMDA receptor PCP binding site
pKd: −log10 of the molar value.
pKd listing for selected compounds.
experimental.endpoint: pKd

compound	experimental.endpoint	test.result
[18F]CCc1ccc(C2(N3CCCCC3)CCCCC2)s1	pKd	7.42
CN(C(=N)Nc1cccc2ccccc12)c1cccc([123I])c1	pKd	8.38
CSc1ccc(Cl)c(NC(=N)N(C)c2cccc(O[11CH3])c2)c1	pKd	8.28
[11CH3]NC1(c2ccccc2)CCCCC1=O (stereo unspecified) [[11C]KETAMINE]	pKd	5.92
[18F]CC12NC(Cc3ccccc31)c1ccccc12 (stereo unspecified)	pKd	7.10
CSc1ccc(Cl)c(NC(=N)N(C)c2cccc(S[11CH3])c2)c1	pKd	8.72

* * *

Target: hERG (KCNH2) (Homo sapiens, UniProt Q12809)
Sequence (Q12809 whole entry): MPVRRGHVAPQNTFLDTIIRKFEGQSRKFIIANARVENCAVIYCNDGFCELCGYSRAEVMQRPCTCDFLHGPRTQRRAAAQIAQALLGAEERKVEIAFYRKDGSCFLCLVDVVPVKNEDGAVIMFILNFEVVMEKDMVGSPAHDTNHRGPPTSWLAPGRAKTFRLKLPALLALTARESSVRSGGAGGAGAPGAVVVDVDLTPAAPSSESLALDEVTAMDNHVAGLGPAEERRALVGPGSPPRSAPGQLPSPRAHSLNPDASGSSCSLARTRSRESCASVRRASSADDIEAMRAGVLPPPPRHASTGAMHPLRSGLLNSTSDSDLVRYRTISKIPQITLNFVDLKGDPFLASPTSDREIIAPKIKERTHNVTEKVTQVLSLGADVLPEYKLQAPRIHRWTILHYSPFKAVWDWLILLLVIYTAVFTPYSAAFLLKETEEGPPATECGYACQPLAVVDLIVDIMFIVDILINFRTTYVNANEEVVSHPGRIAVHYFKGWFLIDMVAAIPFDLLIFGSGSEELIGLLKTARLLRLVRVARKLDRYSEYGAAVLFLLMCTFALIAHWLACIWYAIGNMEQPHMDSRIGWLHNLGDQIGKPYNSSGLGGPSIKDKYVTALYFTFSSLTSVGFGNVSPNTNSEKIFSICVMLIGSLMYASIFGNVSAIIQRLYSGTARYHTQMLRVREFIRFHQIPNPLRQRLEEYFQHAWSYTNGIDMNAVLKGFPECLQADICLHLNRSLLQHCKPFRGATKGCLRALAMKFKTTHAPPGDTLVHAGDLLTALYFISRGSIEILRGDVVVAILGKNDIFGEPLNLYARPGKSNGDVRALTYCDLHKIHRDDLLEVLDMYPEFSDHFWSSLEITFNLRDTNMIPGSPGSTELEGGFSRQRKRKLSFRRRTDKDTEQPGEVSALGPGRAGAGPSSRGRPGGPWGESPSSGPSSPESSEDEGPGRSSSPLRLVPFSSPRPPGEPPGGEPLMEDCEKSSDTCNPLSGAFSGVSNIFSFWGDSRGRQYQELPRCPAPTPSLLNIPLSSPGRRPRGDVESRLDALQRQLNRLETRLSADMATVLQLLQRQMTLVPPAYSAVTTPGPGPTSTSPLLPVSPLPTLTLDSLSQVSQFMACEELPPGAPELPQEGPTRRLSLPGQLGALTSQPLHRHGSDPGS
Experiment: Inhibition of human ERG at 1 uM

input.smiles	target.under.test	inhibition at 1 µM
CSc1cccc(N(C)C(=N)Nc2cc(SCC[18F])ccc2Cl)c1	hERG (KCNH2) (Homo sapiens, UniProt Q12809)	56%

* * *

Assay: Lipophilicity, log D of the compound
Assay type: physicochemical
Conditions: octanol/water

input.smiles	logD
CN(C(=N)Nc1cccc2ccccc12)c1cccc([123I])c1	2.19

* * *

Experiment: Distribution coefficient, log D at pH 7.5
Type: physicochemical
Settings: octanol/water
experimental.endpoint: logD

input.smiles	experimental.endpoint	test.result
CSc1ccc(Cl)c(NC(=N)N(C)c2cccc(S[11CH3])c2)c1	logD	2.68

* * *

Assay: Binding affinity to NMDA receptor PCP binding site
experimental.endpoint: IC50 (µM)

input.smiles	output.unit	test.result
C[C@]12C[C@@H]3C[C@](N)(C1)C[C@@](C[18F])(C3)C2	µM	6
